Recorded pIC50 values (AT2 Receptor (AT2R) (Homo sapiens (Human), UniProt P50052)) are given below.
# pIC50: negative log10 of molar concentration; output just the value

Worked examples, 5 compounds total:
COMPOUND | pIC50
CN(Cc1csc(Cl)c1)C(=O)N1[C@H]2CC[C@@H]1[C@@H](C(=O)O)N(C(=O)N(c1ccccc1)c1ccccc1)C2 [Compound C186] | 7.19
O=C(O)[C@@H]1[C@H]2CC[C@@H](CN1C(=O)N(c1ccccc1)c1ccccc1)N2C(=O)N1CCCC1c1ccccc1 (stereo partly drawn) [Compound C138] | 7.93
O=C(O)[C@@H]1[C@H]2CC[C@@H](CN1C(=O)N(c1ccccc1)c1ccccc1)N2C(=O)c1ccccc1-c1ccccc1 [Compound C240] | 6.95
CN(Cc1ccncc1)C(=O)N1[C@H]2CC[C@@H]1[C@@H](C(=O)O)N(C(=O)N(c1ccccc1)c1ccccc1)C2 [Compound C125] | 7.72
CC(CC(=O)N1[C@H]2CC[C@@H]1[C@@H](C(=O)O)N(C(=O)C(c1ccccc1)c1ccccc1)C2)c1ccccc1 (stereo partly drawn) [Compound C223] | 8.10

We now examine a further compound.
**Query** Short answer please: pIC50, AT2 Receptor (AT2R) (Homo sapiens (Human), UniProt P50052), entry CCN(Cc1ccoc1)C(=O)N1[C@H]2CC[C@@H]1[C@@H](C(=O)O)N(C(=O)N(c1ccccc1)c1ccccc1)C2 [Compound C260]
**Result** 7.53

---

Recorded IC50 values (AT2 Receptor (AT2R) (Homo sapiens (Human))) are given below.
Output spec: scalar in nM, unitless text.

Worked examples, 5 compounds total:
COMPOUND | STUDY_SYSTEM | MEASUREMENT_UNIT | IC50
CN(C)S(=O)(=O)NC(=O)[C@@H]1[C@H]2CC[C@@H](CN1C(=O)C(c1ccccc1)c1ccccc1)N2C(=O)OCc1ccccc1 | AT2 Receptor (AT2R) (Homo sapiens (Human)) | nM | 102
O=C(O)[C@@H]1[C@@H]2CC[C@@H](CC2Oc2ccc([N+](=O)[O-])cc2)N1C(=O)C(c1ccccc1)c1ccccc1 (stereo partly shown) | AT2 Receptor (AT2R) (Homo sapiens (Human)) | nM | 561
CN(Cc1ccc(C#N)cc1)C(=O)N1[C@H]2CC[C@@H]1[C@H](C(=O)O)N(C(=O)N(c1ccccc1)c1ccccc1)C2 | AT2 Receptor (AT2R) (Homo sapiens (Human)) | nM | 18.9
Cc1cc(CN(C)C(=O)N2[C@H]3CC[C@@H]2[C@@H](C(=O)O)N(C(=O)C(c2ccccc2)c2ccccc2)C3)cs1 | AT2 Receptor (AT2R) (Homo sapiens (Human)) | nM | 10.5
CN(Cc1csc2ccccc12)C(=O)N1[C@H]2CC[C@@H]1[C@@H](C(=O)O)N(C(=O)N(c1ccccc1)c1ccccc1)C2 | AT2 Receptor (AT2R) (Homo sapiens (Human)) | nM | 10.1

**Query** Looking for the measured IC50 of O=C(O)[C@@H]1[C@H]2CC[C@@H](CN1C(=O)N(c1ccccc1)c1ccccc1)N2C(=O)C1(c2ccccc2)CCCC1 , can you help?
**Result** 12.1

**Query** Looking for the measured IC50 of O=C(O)[C@@H]1[C@H]2CC[C@@H](CN1C(=O)N(c1ccccc1)c1ccccc1)N2C(=O)N1CCC[C@H]1c1cc(F)ccc1F , can you help?
**Result** 654

---

Recorded IC50 values (AT2 Receptor (AT2R) (Homo sapiens (Human), UniProt P50052)) are given below.
Output spec: scalar in nM, unitless text.

Worked examples, 3 compounds total:
COMPOUND | STUDY_SYSTEM | IC50 / nM
CC(c1ccsc1)N(C)C(=O)N1[C@H]2CC[C@@H]1[C@@H](C(=O)O)N(C(=O)N(c1ccccc1)c1ccccc1)C2 (stereo partly shown) | AT2 Receptor (AT2R) (Homo sapiens (Human), UniProt P50052) | 10.1
O=C(O)[C@@H]1[C@H]2CC[C@@H](CN1C(=O)N(c1ccccc1)c1ccccc1)N2C(=O)C(c1ccccc1)c1ccccc1 | AT2 Receptor (AT2R) (Homo sapiens (Human), UniProt P50052) | 17.1
O=C(O)[C@@H]1[C@H]2CC[C@@H](CN1C(=O)N1c3ccccc3Sc3ccccc31)N2C(=O)C(c1ccccc1)c1ccccc1 | AT2 Receptor (AT2R) (Homo sapiens (Human), UniProt P50052) | 473

**Query** Short answer please: IC50, AT2 Receptor (AT2R) (Homo sapiens (Human), UniProt P50052), entry O=C(O)[C@@H]1[C@H]2CC[C@@H](CN1C(=O)N(c1ccccc1)c1ccccc1)N2C(=O)CCc1ccccc1
**Result** 76.7

**Query** Short answer please: IC50, AT2 Receptor (AT2R) (Homo sapiens (Human), UniProt P50052), entry CCN(Cc1ccc(C)s1)C(=O)N1[C@H]2CC[C@@H]1[C@@H](C(=O)O)N(C(=O)C(c1ccccc1)c1ccccc1)C2
**Result** 10.6

**Query** Short answer please: IC50, AT2 Receptor (AT2R) (Homo sapiens (Human), UniProt P50052), entry O=C(O)[C@@H]1[C@H]2CC[C@@H](CN1C(=O)N(c1ccccc1)c1ccccc1)N2C(=O)N1CCC[C@@H]1c1ccccc1
**Result** 5.49

**Query** Short answer please: IC50, AT2 Receptor (AT2R) (Homo sapiens (Human), UniProt P50052), entry O=C(O)[C@@H]1[C@H]2CC[C@@H](CN1C(=O)N(c1ccccc1)c1ccccc1)N2C(=O)N(Cc1cccs1)C1CC1
**Result** 3.25

**Query** Short answer please: IC50, AT2 Receptor (AT2R) (Homo sapiens (Human), UniProt P50052), entry CC(NC(=O)N1[C@H]2CC[C@@H]1[C@@H](C(=O)O)N(C(=O)N(c1ccccc1)c1ccccc1)C2)c1ccccc1 (stereo partly shown)
**Result** 61.3

**Query** Short answer please: IC50, AT2 Receptor (AT2R) (Homo sapiens (Human), UniProt P50052), entry CCN(Cc1cscn1)C(=O)N1[C@H]2CC[C@@H]1[C@@H](C(=O)O)N(C(=O)N(c1ccccc1)c1ccccc1)C2
**Result** 81.4

**Query** Short answer please: IC50, AT2 Receptor (AT2R) (Homo sapiens (Human), UniProt P50052), entry O=C(O)[C@@H]1[C@H]2CC[C@@H](CN1C(=O)N(c1ccccc1)c1ccccc1)N2C(=O)N(c1ccccc1)c1ccccc1 [Compound C41]
**Result** 9.77

---

Recorded IC50 values (AT2 Receptor (AT2R) (Homo sapiens (Human))) are given below.
Value and unit, in that order.

Worked examples, 3 molecules total:
MOLECULE | VAL
O=C(O)[C@@H]1[C@H]2CC[C@@H](CN1C(=O)N(c1ccccc1)c1ccccc1)N2C(=O)N(c1ccccc1)c1ccccc1 [Compound C5] | 15.3 nM
Cc1ccc(CN(C)C(=O)N2[C@H]3CC[C@@H]2[C@@H](C(=O)O)N(C(=O)N(c2ccccc2)c2ccccc2)C3)s1 | 13.7 nM
O=C(O)[C@@H]1[C@H]2CC[C@@H](CN1C(=O)N(c1ccccc1)c1ccccc1)N2C(=O)N1CCC[C@@H]1c1cc(F)ccc1F | 7.99 nM

We now examine a further molecule.
**Query** Short answer please: IC50, AT2 Receptor (AT2R) (Homo sapiens (Human)), entry Cn1cc(-c2ccccc2C(=O)N2[C@H]3CC[C@@H]2[C@@H](C(=O)O)N(C(=O)N(c2ccccc2)c2ccccc2)C3)cn1
**Result** 156 nM

---

Recorded IC50 values (AT2 Receptor (AT2R) (Homo sapiens (Human), UniProt P50052)) are given below.
Output spec: scalar in nM, unitless text.

Worked examples, 3 molecules total:
ITEM_SMILES | ASSAY_ENDPOINT | VAL
CCN(Cc1ccc(C)s1)C(=O)N1[C@H]2CC[C@@H]1[C@@H](C(=O)O)N(C(=O)N(c1ccccc1)c1ccccc1)C2 | IC50 | 3.87
C#Cc1ccc(CN(C)C(=O)N2[C@H]3CC[C@@H]2[C@@H](C(=O)O)N(C(=O)N(c2ccccc2)c2ccccc2)C3)cc1 | IC50 | 19.2
CCN(Cc1csc(C)c1)C(=O)N1[C@H]2CC[C@@H]1[C@@H](C(=O)O)N(C(=O)N(c1ccccc1)c1ccccc1)C2 | IC50 | 11.8

**Query** Looking for the measured IC50 of C=CCc1ccc(CN(C)C(=O)N2[C@H]3CC[C@@H]2[C@@H](C(=O)O)N(C(=O)N(c2ccccc2)c2ccccc2)C3)cc1 , can you help?
**Result** 6.78

**Query** Looking for the measured IC50 of CN(CC1CCCCC1)C(=O)N1[C@H]2CC[C@@H]1[C@@H](C(=O)O)N(C(=O)N(c1ccccc1)c1ccccc1)C2 , can you help?
**Result** 111

**Query** Looking for the measured IC50 of CN(Cc1ccc(Br)cc1)C(=O)N1[C@H]2CC[C@@H]1[C@@H](C(=O)O)N(C(=O)N(c1ccccc1)c1ccccc1)C2 , can you help?
**Result** 14

**Query** Looking for the measured IC50 of O=C(O)[C@@H]1[C@H]2CC[C@@H](CN1C(=O)N(c1ccccc1)c1ccccc1)N2C(=O)C#Cc1ccccc1 , can you help?
**Result** 40

**Query** Looking for the measured IC50 of O=C(O)[C@H]1[C@@H]2CC[C@H](CN1C(=O)C(c1ccccc1)c1ccccc1)N2C(=O)OCc1ccccc1 , can you help?
**Result** 69.7

**Query** Looking for the measured IC50 of O=C(O)[C@@H]1[C@H]2CC[C@@H](CN1C(=O)N(c1ccccc1)c1ccccc1)N2S(=O)(=O)c1ccccc1 , can you help?
**Result** 432
